- STUDY SYSTEM: CYP2B6 (Homo sapiens, UniProt P20813)
- Sequence (P20813 whole entry): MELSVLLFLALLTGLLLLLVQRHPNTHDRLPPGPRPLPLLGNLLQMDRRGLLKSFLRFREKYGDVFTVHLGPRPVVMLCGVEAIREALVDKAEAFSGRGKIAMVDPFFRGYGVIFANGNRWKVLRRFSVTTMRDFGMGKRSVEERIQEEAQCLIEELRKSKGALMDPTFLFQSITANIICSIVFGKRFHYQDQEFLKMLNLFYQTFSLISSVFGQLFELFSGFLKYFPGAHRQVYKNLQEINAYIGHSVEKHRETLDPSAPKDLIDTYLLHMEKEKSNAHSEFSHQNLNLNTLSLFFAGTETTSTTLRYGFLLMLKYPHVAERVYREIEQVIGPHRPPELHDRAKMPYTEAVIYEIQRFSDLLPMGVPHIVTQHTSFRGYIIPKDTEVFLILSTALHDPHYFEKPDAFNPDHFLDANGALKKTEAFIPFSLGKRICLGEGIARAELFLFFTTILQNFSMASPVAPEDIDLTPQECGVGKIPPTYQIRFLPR
- PROTOCOL NOTES: time-dependent CYP inhibition in human liver microsomes (IC50 shift)
- DETAILS: both, pooled human liver microsomes, pH 7.4, % of Control Enzyme Activity, pre-incubation 30 min +NADPH, 30.0 μM
MEASURED PARAMETER: activity at 20 min, 30 µM (%)
# number only, unit % dropped from output

GET /value?item= S=P(N1CC1)(N1CC1)N1CC1 [Thio-TEPA] &field=activity at 20 min, 30 µM returns 11.7

====

- STUDY SYSTEM: UniProt P08183
- Sequence (P08183 whole entry): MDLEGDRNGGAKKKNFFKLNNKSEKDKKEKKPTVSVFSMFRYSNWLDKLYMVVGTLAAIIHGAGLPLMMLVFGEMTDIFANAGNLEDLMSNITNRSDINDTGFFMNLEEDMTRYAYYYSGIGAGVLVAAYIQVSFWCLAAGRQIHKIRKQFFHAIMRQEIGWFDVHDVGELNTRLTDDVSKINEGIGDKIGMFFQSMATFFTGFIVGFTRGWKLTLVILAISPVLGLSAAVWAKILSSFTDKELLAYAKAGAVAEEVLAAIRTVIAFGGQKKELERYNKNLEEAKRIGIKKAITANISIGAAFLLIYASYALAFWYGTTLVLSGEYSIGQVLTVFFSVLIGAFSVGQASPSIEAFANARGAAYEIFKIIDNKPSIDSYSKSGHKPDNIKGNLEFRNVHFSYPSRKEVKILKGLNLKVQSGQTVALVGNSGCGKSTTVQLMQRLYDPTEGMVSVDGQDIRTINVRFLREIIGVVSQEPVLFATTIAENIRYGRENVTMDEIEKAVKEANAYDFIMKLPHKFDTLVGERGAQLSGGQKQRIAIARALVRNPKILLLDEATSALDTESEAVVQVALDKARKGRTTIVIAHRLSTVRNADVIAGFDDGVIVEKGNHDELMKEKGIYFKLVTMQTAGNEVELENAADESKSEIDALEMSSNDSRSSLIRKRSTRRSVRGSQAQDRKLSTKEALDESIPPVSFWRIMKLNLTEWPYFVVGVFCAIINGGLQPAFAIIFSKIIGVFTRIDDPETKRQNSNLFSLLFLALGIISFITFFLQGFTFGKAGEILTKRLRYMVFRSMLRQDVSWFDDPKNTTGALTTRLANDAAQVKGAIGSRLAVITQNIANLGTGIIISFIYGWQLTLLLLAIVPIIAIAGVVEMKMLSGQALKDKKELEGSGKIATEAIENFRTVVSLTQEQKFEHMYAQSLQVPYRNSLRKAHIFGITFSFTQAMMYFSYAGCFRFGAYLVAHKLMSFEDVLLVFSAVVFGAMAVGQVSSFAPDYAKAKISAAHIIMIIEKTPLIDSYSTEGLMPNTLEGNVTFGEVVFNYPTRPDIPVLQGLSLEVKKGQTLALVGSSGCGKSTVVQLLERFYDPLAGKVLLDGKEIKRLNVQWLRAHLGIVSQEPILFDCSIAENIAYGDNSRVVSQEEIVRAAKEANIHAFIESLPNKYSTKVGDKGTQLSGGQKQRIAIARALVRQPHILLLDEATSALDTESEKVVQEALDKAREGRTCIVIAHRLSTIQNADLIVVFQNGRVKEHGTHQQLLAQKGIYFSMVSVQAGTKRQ
- PROTOCOL NOTES: in vitro
- DETAILS: Caco-2, pH 7.4, Recovery (%)
MEASURED PARAMETER: recovery at 120 min, 10 µM (%)
Note: unit % is implicit; provide only the numeric part.

Form field recovery at 120 min, 10 µM, entry C[C@H]1O[C@@H](O[C@H]2[C@@H](O)C[C@H](O[C@H]3[C@@H](O)C[C@H](O[C@H]4CC[C@@]5(C)[C@H](CC[C@@H]6[C@@H]5C[C@@H](O)[C@]5(C)[C@@H](C7=CC(=O)OC7)CC[C@]65O)C4)O[C@@H]3C)O[C@@H]2C)C[C@H](O)[C@@H]1O : 73.4
